Listed below: growth values for each entry.
System: SW-620 colon
Assay: NCI-60 one-dose screen, 48 h (100 = growth as untreated, 0 = no growth, -100 = all killed)
Details: 10 µM unless noted
About 83,000 compounds went through this panel and 20% of them were active in at least one assay; those are over-represented in the sample as a whole.
Your answer should be a plain number; it is taken to be in %.

{"columns": ["compound", "tested-system", "unit-name", "growth"],
 "data": [
  ["COc1ccc(-c2nc3cc(C)ccc3n2CC(=O)N=Nc2c(O)[nH]c3ccc(Cl)cc23)cc1", "SW-620 colon", "%", 12.4],
  ["CC(=O)/C=C/c1cccc2c1C(=O)NC(C)(c1cc3cc(Br)ccc3oc1=O)N2 (stereo not drawn)", "SW-620 colon", "%", 32.3]
]}

Kindly review the next compound as well.
Can you look up the measured growth of O=C(N1c2ccccc2Sc2ccccc21)n1ccc2cccnc21 for me?
58.4

Attribution: PubChem BioAssay (NCI)
